Cited source: PubChem BioAssay (Tox21)

test: qHTS assay to identify small molecule antagonists of the estrogen receptor alpha (ER-alpha) signaling pathway using the BG1 cell line (AID 743080); details: BG1Luc4E2 ERE-luciferase antagonist mode, luminescence; series mostly up to 70.3 µM;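 note: BG1 cells stimulated with 17beta-estradiol alongside compound; nearly all actives have a fitted effect of over 25% in size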
Inconclusive results are not listed. The source made the active and inactive calls. Calls come from the whole dose curve.
Classes used: active, inactive

>  <molecule>
CC1(C)CC/C(=C/c2ccc(Cl)cc2)C1(O)Cn1cncn1 (stereo unspecified)

>  <label value>
inactive

$$$$
>  <molecule>
CC(C)CCCCCOC(=O)c1ccccc1C(=O)OCCCCCC(C)C

>  <label value>
inactive

$$$$
>  <molecule>
Oc1ccc(C(=C(Cl)Cl)c2ccc(O)cc2)cc1

>  <label value>
inactive

$$$$
>  <molecule>
CC(C)Oc1cccc(NC(=O)c2ccccc2C(F)(F)F)c1

>  <label value>
inactive

$$$$
>  <molecule>
C=CCC1=C(C)C(OC(=O)C2C(C=C(C)C)C2(C)C)CC1=O (stereo unspecified)

>  <label value>
active

$$$$
>  <molecule>
N#CCCSCCC#N

>  <label value>
inactive

$$$$

---

assay: qHTS assay to identify small molecule antagonists of the constitutive androstane receptor (CAR) signaling pathway - cell viability counter screen (AID 1224837); conditions: HepG2-CYP2B6-hCAR viability, CellTiter-Fluor, 23 h, co-treated with 50 nM CITCO; series mostly up to 92.4 µM; note: nearly all actives have a fitted effect of over 45% in size
Inconclusive results are not listed. Calls of active or inactive are those of the source. Calls come from the whole dose curve; as a rule, active = well fitted cell-killing curve with a large enough effect in the repeat runs; inconclusive = weak or mixed curves, or effect the other way; inactive = flat fitted curve, though single readings scatter.
Classes used: active, inactive

>  <molecule>
CCC(C)(C)C(=O)OC1=C(c2ccc(Cl)cc2Cl)C(=O)OC12CCCCC2

>  <label value>
inactive

$$$$
>  <molecule>
O=c1ssc(Cl)c1Cl

>  <label value>
active

$$$$
>  <molecule>
COP(=O)(CCC(=O)NCO)OC

>  <label value>
inactive

$$$$
>  <molecule>
CC(=O)[O-].CC(=O)[O-].[Hg+2]

>  <label value>
active

$$$$
>  <molecule>
c1ccc(Nc2ccc3ccccc3c2)cc1

>  <label value>
inactive

$$$$
>  <molecule>
CCCN(CC)CC1COC2(CCC(C(C)(C)C)CC2)O1 (configuration not stated)

>  <label value>
inactive

$$$$
>  <molecule>
Oc1ccccc1Br

>  <label value>
inactive

$$$$
>  <molecule>
O=[N+]([O-])c1ccc(Oc2ccc(C(F)(F)F)cc2[N+](=O)[O-])cc1

>  <label value>
inactive

$$$$
>  <molecule>
CCN(CC)c1c([N+](=O)[O-])cc(C(F)(F)F)c(N)c1[N+](=O)[O-]

>  <label value>
inactive

$$$$
>  <molecule>
Cc1cc(C(F)(C(F)(F)F)C(F)(F)F)ccc1NC(=O)c1cccc(I)c1C(=O)NC(C)(C)CS(C)(=O)=O

>  <label value>
inactive

$$$$
>  <molecule>
Cc1c(Cl)c(=O)oc2cc(OP(=O)(OCCCl)OCCCl)ccc12

>  <label value>
inactive

$$$$
>  <molecule>
N#CNC#N

>  <label value>
inactive

$$$$
>  <molecule>
CC(C)[C@H](C(=O)O[C@H](C#N)c1cccc(Oc2ccccc2)c1)c1ccc(Cl)cc1

>  <label value>
inactive

$$$$
>  <molecule>
O=C1c2ccccc2C(=O)C1C(=O)C(c1ccccc1)c1ccc(Cl)cc1 (configuration not stated)

>  <label value>
inactive

$$$$
>  <molecule>
N#CCCO

>  <label value>
inactive

$$$$
>  <molecule>
CC1(C)[C@H](C(=O)O[C@H](C#N)c2cccc(Oc3ccccc3)c2)[C@@H]1/C=C(\Cl)C(F)(F)F

>  <label value>
inactive

$$$$
>  <molecule>
S=C(SSC(=S)N1CCCCC1)N1CCCCC1

>  <label value>
active

$$$$
>  <molecule>
CCCCCCCCCCCCCC[P+](CCCCCC)(CCCCCC)CCCCCC (tested in a mixture with another compound)

>  <label value>
active

$$$$
>  <molecule>
N#CCCC(Br)(C#N)CBr (configuration not stated)

>  <label value>
active

$$$$
>  <molecule>
SCc1ccco1

>  <label value>
inactive

$$$$
>  <molecule>
O=[N+]([O-])c1cc([N+](=O)[O-])c2ccccc2c1

>  <label value>
inactive

$$$$
>  <molecule>
C[C@H]1CC[C@@H]2[C@@H](C)[C@H]3[C@H](C[C@H]4[C@@H]5CC=C6CC(O[C@@H]7O[C@H](CO)[C@H](O)[C@H](O[C@@H]8O[C@H](CO)[C@@H](O)[C@H](O)[C@H]8O)[C@H]7O[C@H]7O[C@@H](C)[C@H](O)[C@@H](O)[C@H]7O)CC[C@]6(C)[C@H]5CC[C@]34C)N2C1 (some centres not stated)

>  <label value>
active

$$$$
